# Target or test system: T1, CEACAM5 (R&D Systems, 4128-CM-050) (human, UniProt P06731 35-685)
# T1 construct: Immobilised on the ELISA plate; also called human CEACAM5
# T1 sequence (looked up): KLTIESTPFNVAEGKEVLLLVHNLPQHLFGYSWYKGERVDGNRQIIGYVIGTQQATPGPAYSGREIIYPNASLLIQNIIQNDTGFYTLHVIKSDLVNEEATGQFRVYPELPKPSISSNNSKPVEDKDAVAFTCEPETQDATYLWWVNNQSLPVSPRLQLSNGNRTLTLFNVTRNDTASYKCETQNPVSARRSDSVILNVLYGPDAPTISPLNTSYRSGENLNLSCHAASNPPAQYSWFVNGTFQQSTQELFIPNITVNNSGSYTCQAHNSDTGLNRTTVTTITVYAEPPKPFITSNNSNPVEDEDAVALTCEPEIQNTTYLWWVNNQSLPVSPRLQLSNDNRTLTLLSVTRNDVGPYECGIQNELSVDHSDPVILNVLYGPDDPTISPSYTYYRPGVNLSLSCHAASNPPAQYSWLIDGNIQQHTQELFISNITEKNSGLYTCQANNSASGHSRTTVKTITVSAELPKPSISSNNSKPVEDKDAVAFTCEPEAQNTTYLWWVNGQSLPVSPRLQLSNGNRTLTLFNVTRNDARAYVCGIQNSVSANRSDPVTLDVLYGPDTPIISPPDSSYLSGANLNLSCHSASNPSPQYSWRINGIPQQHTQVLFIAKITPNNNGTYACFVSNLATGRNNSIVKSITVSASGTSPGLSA
# Protocol details: ELISA on immobilised CEACAM5, 4-parameter fit, duplicate

Binder: (Y-S1-X)p-Fab^2 with Y Gd/4arm-DOTA, S1 -CH2-(1,4-Ph)-NH-C(═S)-, X -Gly-Tyr-Lys*-Z2(#N)- (Fab, V domains shown, labeling may sit on this chain; sites not stated; labeling portion (MW 1153) on amino groups of the Fab, sites and chain not stated; 1-2 per Fab by MS, also called Ex-No 56; conjugate 56) VH: EVQLVESGGGLVQPGGSLRLSCAASGFNIRDTYMHWVRQAPGKGLEWVARIDPANGNSRYVPKFQGRFTISADTSRNTAYLQMNSLRAEDTAVYYCAPFGYYVSDYAMAYWGQGTLVTVSS VL: DIQLTQSPSSLSASVGDRVTITCRAGESVDIFGVGFLHWYQQKPGKAPKLLIYRASNLESGIPSRFSGSGSRTDFTLTISSLQPEDFATYYCQQTNEDPYTFGQGTKVEIKR
Endpoint unit: nM
EC50: 0.26
--
Binder: (Y-S1-X)p-Fab^2 with Y Gd/DOTA, S1 -NH-(CH2CH2O)3-CH2-C(═O)-, X -Met-Gly-Lys*-Z2(#N)- (Fab, V domains shown, labeling may sit on this chain; sites not stated; labeling portion (MW 1145) on amino groups of the Fab, sites and chain not stated; 1-4 per Fab by MS, also called Ex-No 41; conjugate 41) VH: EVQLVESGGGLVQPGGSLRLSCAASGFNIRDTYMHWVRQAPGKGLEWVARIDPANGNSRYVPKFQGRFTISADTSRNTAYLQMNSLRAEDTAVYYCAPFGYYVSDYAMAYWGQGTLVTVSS VL: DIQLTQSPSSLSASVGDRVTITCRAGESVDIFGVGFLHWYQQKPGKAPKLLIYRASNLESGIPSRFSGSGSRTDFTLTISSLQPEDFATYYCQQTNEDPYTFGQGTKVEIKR
Endpoint unit: nM
EC50: 0.21

Every entry's value here was drawn from patent US20220096653A1.
